Protocol details: H69AR cell proliferation blockers – human, duplicate replicates, primary screen (AID 580);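 further: 100% = mean luminescence of untreated wells and 0% = no signal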
Assay conditions: H69AR lung tumor cells viability, ATP luminescence, 72 h; at 10 µM; stronger effect = lower value
Label key: rule met means viability under 90%; rule not met means viability of 90% or more.

>  <Compound>
COCCCNC(=O)CSc1ccc(Cl)cc1

>  <Group>
rule not met

$$$$
>  <Compound>
CC1(C(=O)NC2CCCCC2)CCC(=O)N1Cc1cccs1 (stereo unspecified)

>  <Group>
rule met

$$$$
>  <Compound>
C(/CCc1ccccc1)=N\n1cnnc1

>  <Group>
rule not met

$$$$

* * *

Protocol details: viability of HCT116 without oncogenic beta-catenin – human colon tumor cells, pilot screen (AID 823);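 further: 0% = wells killed by 20 µM Hyamine and 100% = untreated DMSO cell wells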
Assay conditions: HCT116 beta-catenin knockout viability, CellTiter-Glo, 60 h; at 10 µM; stronger effect = lower value
Inconclusive results are not listed.
Reported property: viability (%)

>  <Compound>
O=C(c1ccco1)N1CCN(C(=O)C2CC(c3ccc(F)cc3)=NO2)CC1 (stereo unspecified)

>  <Number>
106

$$$$
>  <Compound>
CCC(=O)N1c2ccccc2NC2=C(C(=O)CC(c3ccco3)C2)C1c1ccco1 (stereo unspecified)

>  <Number>
92.4

$$$$
>  <Compound>
COc1ccccc1OCC(O)CN1C(=O)NC(C)(C)C1=O (stereo unspecified)

>  <Number>
93.4

$$$$
>  <Compound>
O=C(Cn1ncc2c1-c1ccccc1OC2)Nc1ccc(Cl)cn1

>  <Number>
95.9

$$$$
>  <Compound>
CCN1C(=O)c2cccc3c(N)ccc1c23

>  <Number>
74.2

$$$$
>  <Compound>
COc1ccc(N2CCN(c3oc(COc4ccccc4Cl)nc3C#N)CC2)cc1

>  <Number>
65.7

$$$$
>  <Compound>
Cc1noc(/C=C/N(C)C)c1S(=O)(=O)N1CCCC(C(=O)N2CCCCC2)C1 (stereo unspecified)

>  <Number>
87.4

$$$$
>  <Compound>
Cc1ccc(-c2cc(C(F)(F)F)n3nc(C(=O)N4CCCC4)cc3n2)cc1

>  <Number>
96.9

$$$$
>  <Compound>
Cc1nc2ccc(NC(=O)c3ccc(Cl)s3)cc2s1

>  <Number>
106

$$$$
>  <Compound>
O=C(CN1CCN(Cc2ccccc2F)C1=O)NCc1cccnc1

>  <Number>
100

$$$$
>  <Compound>
Cc1onc(-c2ccccc2Cl)c1C(=O)Nc1nnc(C(C)C)s1

>  <Number>
93.4

$$$$

* * *

Protocol details: RAM signaling pathway blockade in yeast – S. cerevisiae, Pdr1DBD-CYC8 efflux-inhibited sensitized strain, primary screen (AID 1298);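 further: 0% = DMSO untreated cells without growth and 100% = 10 µM 1-NA-PP1 full growth; higher means more yeast growth rescued from 5-FOA killing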
Assay conditions: S. cerevisiae cbk1-as DSE1-URA3 strain, 5-FOA growth OD615, 2 d; at 50 µM; stronger effect = higher value
Active and inactive are the calls of the source.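 Rule for the calls: active = RAM network inhibition above 8.4% in each of two replicates, 3 SD over the compound average; inconclusive = above 8.4% inhibition in only one replicate; inactive = 8.4% inhibition or less in each replicate.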
Measured RAM network inhibition, listed per entry.

>  <Molecule>
O=c1c2ccccc2nc2c3ccccc3ncn12

>  <RAM network inhibition>
6.01% (inactive)

$$$$
>  <Molecule>
COCCn1c(SCC(=O)N2CCc3ccccc32)nc2c(c1=O)SC(C)C2 (stereo not drawn)

>  <RAM network inhibition>
6.03% (inactive)

$$$$
>  <Molecule>
CN(C)CCCN1C(=O)c2oc3ccc(Cl)cc3c(=O)c2C1c1cccnc1 (stereo not drawn)

>  <RAM network inhibition>
-2.19% (inactive)

$$$$
>  <Molecule>
Cc1cc2ncn(C(=O)N3CCOCC3)c2cc1C

>  <RAM network inhibition>
4.08% (inactive)

$$$$
>  <Molecule>
COc1ccc(-c2nc3c(c(SCC(=O)N4CCOCC4)n2)COC(C)(C)C3)cc1

>  <RAM network inhibition>
2.02% (inactive)

$$$$
>  <Molecule>
COc1cc2c(cc1OC)CN(C(=O)CSc1nc3[nH]ncc3c(=O)n1-c1ccccc1)CC2

>  <RAM network inhibition>
2.58% (inactive)

$$$$
>  <Molecule>
COc1ccc(CNc2oc(-c3ccccc3)nc2C#N)cc1

>  <RAM network inhibition>
4.07% (inactive)

$$$$
>  <Molecule>
CC12CCC(C(=O)N3CCN(C(=O)C45CCC(C)(C(=O)O4)C5(C)C)CC3)(OC1=O)C2(C)C

>  <RAM network inhibition>
0.26% (inactive)

$$$$
>  <Molecule>
O=S(=O)(c1ccccc1)N1CCN(S(=O)(=O)c2ccccc2)C1

>  <RAM network inhibition>
3.22% (inactive)

$$$$
>  <Molecule>
CCSc1nnc(N2C(=O)CC(c3ccsc3)C3=C2CC(C)(C)CC3=O)s1 (stereo not drawn)

>  <RAM network inhibition>
3.19% (inactive)

$$$$
>  <Molecule>
COc1ccc(C2CC(c3ccc(Cl)cc3Cl)n3nc(N)nc3N2)cc1 (stereo not drawn)

>  <RAM network inhibition>
4.26% (inactive)

$$$$
>  <Molecule>
COc1ccc(N2CCN(c3oc(COc4ccccc4Cl)nc3C#N)CC2)cc1

>  <RAM network inhibition>
4.12% (inactive)

$$$$
>  <Molecule>
Nc1[nH]nc2nc(N3CCCC3)nc(-c3ccccc3)c12

>  <RAM network inhibition>
-0.16% (inactive)

$$$$
>  <Molecule>
Cc1cc(N2C(=O)CC(Cc3ccccc3)C2=O)no1 (stereo not drawn)

>  <RAM network inhibition>
2.8% (inactive)

$$$$
>  <Molecule>
CSc1cccc(NS(=O)(=O)c2ccccc2)c1

>  <RAM network inhibition>
0.21% (inactive)

$$$$
>  <Molecule>
CCOC(=O)C(C(=O)OCC)C(C)C#CCN1CCCCC1 (stereo not drawn)

>  <RAM network inhibition>
7.5% (inactive)

$$$$
>  <Molecule>
Cc1ccc(C(=O)Nc2ccc3c(c2)CCC3)o1

>  <RAM network inhibition>
-0.68% (inactive)

$$$$
>  <Molecule>
Cc1nc2ccc(C(=O)c3ccccc3)cc2[nH]1

>  <RAM network inhibition>
5% (inactive)

$$$$
>  <Molecule>
CN(C)CCCNC(=O)CCC1CCCCC1

>  <RAM network inhibition>
6.01% (inactive)

$$$$
>  <Molecule>
CCN1C(=O)c2ccccc2S(=O)(=O)c2ccc(C(=O)NCc3cccnc3)cc21

>  <RAM network inhibition>
1.98% (inactive)

$$$$
>  <Molecule>
COc1cc2c(cc1OC)CN(C(=O)CSc1nnc3scc(-c4ccccc4)n13)CC2

>  <RAM network inhibition>
3.4% (inactive)

$$$$
>  <Molecule>
COCCCNC(=O)c1oc2ccc(S(=O)(=O)N(C)C3CCCCC3)cc2c1C

>  <RAM network inhibition>
1.23% (inactive)

$$$$
>  <Molecule>
CCOC(=O)c1ccc(N2Cc3cc(C)c(C)cc3C2)cc1O

>  <RAM network inhibition>
1.88% (inactive)

$$$$
